readoutType: melting point

recordSmiles	reportedMeasurement
COc1ccc(-c2cncn2-c2ccc(S(C)(=O)=O)cc2)c(Cl)n1	192 to 198 °C
Cc1ccc(-n2c(-c3ccc(S(C)(=O)=O)cc3)cnc2Cl)cc1	156 to 160 °C
CS(=O)(=O)c1ccc(-n2cnc(Cl)c2-c2ccc(Cl)c(Cl)c2)cc1	156 to 157 °C
